Data origin, for the record: ChEMBL document CHEMBL5291721

measured-on: 5-hydroxytryptamine receptor 2C (Homo sapiens, UniProt P28335)
Sequence (P28335 whole entry): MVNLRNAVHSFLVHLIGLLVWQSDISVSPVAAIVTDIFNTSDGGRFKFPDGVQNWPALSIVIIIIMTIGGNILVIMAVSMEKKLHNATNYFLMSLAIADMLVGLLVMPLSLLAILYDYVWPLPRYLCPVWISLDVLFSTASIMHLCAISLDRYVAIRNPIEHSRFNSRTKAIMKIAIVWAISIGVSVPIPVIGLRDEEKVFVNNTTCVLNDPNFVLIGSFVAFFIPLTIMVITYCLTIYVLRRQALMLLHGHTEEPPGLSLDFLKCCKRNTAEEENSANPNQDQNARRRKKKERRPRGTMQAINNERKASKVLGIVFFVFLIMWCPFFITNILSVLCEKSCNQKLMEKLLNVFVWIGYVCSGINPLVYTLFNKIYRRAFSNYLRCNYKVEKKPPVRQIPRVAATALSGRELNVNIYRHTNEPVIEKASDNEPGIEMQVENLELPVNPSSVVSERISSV
property-name: AC50

Before answering, review these 10 worked examples.
O=C(O)Cc1ccccc1Nc1c(Cl)cccc1Cl | > 10 µM
CN1CCN=C(c2ccccc2)c2cc(Cl)ccc21 | 25 µM
CN(CCOc1ccc(CC2SC(=O)NC2=O)cc1)c1ccccn1 (configuration not stated) | > 30 µM
CN(C)Cc1nnc2n1-c1ccc(Cl)cc1C(c1ccccc1)=NC2 | > 30 µM
Cc1ccnc2c1NC(=O)c1cccnc1N2C1CC1 | > 10 µM
NC(=O)NC(=O)Cc1ccccc1 [PHENACEMIDE] | > 30 µM
CO/N=C(\C(=O)N[C@@H]1C(=O)N2C(C(=O)O)=C(CSc3nc(=O)c(=O)[nH]n3C)CS[C@H]12)c1csc(N)n1 | > 30 µM
CC(=O)O[C@]1(C(C)=O)CC[C@H]2[C@@H]3C=C(Cl)C4=CC(=O)[C@@H]5C[C@@H]5[C@]4(C)[C@H]3CC[C@@]21C [CYPROTERONE ACETATE] | > 30 µM
O=c1[nH]c2ccccc2n1CCCN1CCN(C(c2ccccc2)c2ccccc2)CC1 [OXATOMIDE] | 1.7 µM
CNC[C@H](O)c1ccc(O)c(O)c1 [EPINEPHRINE] | > 30 µM

// for each compound below, give its AC50
1. CC(CN1c2ccccc2Sc2ccccc21)N(C)C (configuration not stated)
2. CO[C@H]1C[C@H](O[C@H]2CC[C@@]3(C)[C@H](CC[C@@H]4[C@@H]3CC[C@]3(C)[C@@H](C5=CC(=O)OC5)[C@@H](OC(C)=O)C[C@]43O)C2)O[C@@H](C)[C@@H]1O

0.5 µM
> 30 µM
